- assayed_system: HLA-DRB1*11:01 (Homo sapiens, UniProt P01903+P01911, A100R/A169T/A87E/I96F/K41T/L162R/M171V/P40S/Q125H/Q178H/Q39Y/Q99D/R42S/S66Y/T262R/V115G/W38E)
- Sequence (P01903 26-254 limits assumed, other chains not shown): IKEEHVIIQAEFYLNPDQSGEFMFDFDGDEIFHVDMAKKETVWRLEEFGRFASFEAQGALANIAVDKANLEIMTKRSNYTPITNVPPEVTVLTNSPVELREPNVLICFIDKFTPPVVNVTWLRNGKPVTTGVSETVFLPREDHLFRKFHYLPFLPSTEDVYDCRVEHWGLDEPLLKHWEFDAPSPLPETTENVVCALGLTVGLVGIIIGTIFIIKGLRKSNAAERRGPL
- test_protocol: HLA binding assay, DRB1*11:01
Where no end group is shown, it is not given here.
value_type: IC50
Answer format: value, then unit.

// query Would you mind telling me what IC50 value was observed for KSTYRVVSVLTVLHQD-NH2 [Tregitope 289z] ?
// result 480 nM

----------
- assayed_system: HLA-DRB1*15:01 (Homo sapiens, UniProt P01903+P01911)
- Construct: purchased Benaroya Research Institute, Seattle, Washington
- test_protocol: biochemical
- Assay type: binding
- condition_summary: read-out: HLA-DRB1 (IC50) *1501
Where no end group is shown, it is not given here.
value_type: IC50 (nM)
Write down the numeric answer in nM and omit the unit.

// query Would you mind telling me what IC50 value was observed for EKMVSLLSVLLSM [NSP7-289] ?
// result 200
